Hello, the source for this data is ChEMBL document CHEMBL5604062, in case you need it.

# TESTED_TARGET: Nonstructural protein 3 (Zika virus)
# EXPERIMENT_SUMMARY: Functional biochemical assay to identify treatments for viral infectious disease that targets Zika NS2B-NS3 protease. Utilizing a direct enzyme activity measurement method, reading the fluorescence intensity is used to characterize the relative potency of inhibitors as IC50.
# Set-up: species or system PRVABC59
Quick list: IC50 per entry.
READOUT_KIND: IC50

- SMILES_STR: "CCCN(C)C(=O)c1cc(Cl)ccc1NS(=O)(=O)c1ccc(Oc2ccccc2Cl)cc1"
  TESTED_TARGET: "Nonstructural protein 3 (Zika virus)"
  VALUE_MEASURED: "> 99.5 µM"
- SMILES_STR: "Cc1[nH]c2ccccc2c1CN1CCC(c2nc3ccccc3s2)CC1"
  TESTED_TARGET: "Nonstructural protein 3 (Zika virus)"
  VALUE_MEASURED: "2.89 µM"
- SMILES_STR: "NCc1cccc(S(=O)(=O)Cc2cc(Cl)cc(NC(=O)OCc3ccccc3)c2)c1"
  TESTED_TARGET: "Nonstructural protein 3 (Zika virus)"
  VALUE_MEASURED: "92.3 µM"
- SMILES_STR: "c1cncc(N2CCCN(Cc3c[nH]c4ccccc34)CC2)c1"
  TESTED_TARGET: "Nonstructural protein 3 (Zika virus)"
  VALUE_MEASURED: "> 99.5 µM"
- SMILES_STR: "Cc1cc(-c2ccc3[nH]c(C(=O)O)cc3c2)c(=O)n(Cc2ccccc2)c1"
  TESTED_TARGET: "Nonstructural protein 3 (Zika virus)"
  VALUE_MEASURED: "> 99.5 µM"
- SMILES_STR: "N=C(N)NCCc1ccc(NC(=O)c2ccccc2)cc1"
  TESTED_TARGET: "Nonstructural protein 3 (Zika virus)"
  VALUE_MEASURED: "> 198 µM"
- SMILES_STR: "O=c1ccc(N2CCN(Cc3c[nH]c4ccccc34)CC2)c[nH]1"
  TESTED_TARGET: "Nonstructural protein 3 (Zika virus)"
  VALUE_MEASURED: "> 99.5 µM"
- SMILES_STR: "c1ccc2c(CN3CCC(c4cscn4)CC3)c[nH]c2c1"
  TESTED_TARGET: "Nonstructural protein 3 (Zika virus)"
  VALUE_MEASURED: "22.1 µM"
- SMILES_STR: "NC1CCN(c2ccc(NC(=O)c3cc(Cl)cc(NC(=O)OCc4ccccc4)c3)cc2)CC1"
  TESTED_TARGET: "Nonstructural protein 3 (Zika virus)"
  VALUE_MEASURED: "7.28 µM"
- SMILES_STR: "Cc1c(C(=O)Nc2ccc3c(c2)CCC(=O)N3CC2CCC2)cc(C2CC2)n1C"
  TESTED_TARGET: "Nonstructural protein 3 (Zika virus)"
  VALUE_MEASURED: "> 25 µM"

###

# TESTED_TARGET: Nonstructural protein 3 (Zika virus, UniProt A0A024AXB9)
# Sequence (A0A024AXB9 whole entry): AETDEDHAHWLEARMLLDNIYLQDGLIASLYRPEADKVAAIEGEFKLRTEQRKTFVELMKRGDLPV
# EXPERIMENT_SUMMARY: Functional biochemical assay to identify treatments for viral infectious disease that targets Zika NS2B-NS3 protease. Utilizing a direct enzyme activity measurement method, reading the fluorescence intensity is used to characterize the relative potency of inhibitors as IC50.
# Parameters: species or system PRVABC59

- SMILES_STR: "O=C(Nc1ccc2c(c1)CNC2)c1ccc2ncccc2c1"
  IC50: "> 25 µM"
- SMILES_STR: "NCc1cccc(NC(=O)c2cc(C3CC3)nc3ccc(Cl)cc23)c1"
  IC50: "> 99.5 µM"
- SMILES_STR: "Cc1ncc(C(=O)Nc2cccc(CN)c2)cc1NC(=O)OCc1ccccc1"
  IC50: "> 99.5 µM"
- SMILES_STR: "O=C(NCc1cc(Cl)ccc1NS(=O)(=O)c1ccc(Oc2ccccc2Cl)cc1)C1CC1"
  IC50: "> 99.5 µM"
- SMILES_STR: "O=S(=O)(Nc1ccc(Oc2ccccc2Cl)cc1)c1c[nH]c2ccc(Cl)cc12"
  IC50: "> 99.5 µM"
- SMILES_STR: "COCc1cc(Cl)cc(C(=O)Nc2ccc3c(c2)CNC3)c1"
  IC50: "0.785 µM"
- SMILES_STR: "NCc1cccc(NC(=O)[C@@H]2CCC[C@@H](NC(=O)OCc3ccccc3)C2)c1"
  IC50: "> 99.5 µM"
- SMILES_STR: "C[C@H]1C[C@H](c2cccc(CN)c2)[C@@H](c2cc(Cl)cc(NC(=O)OCc3ccccc3)c2)C1"
  IC50: "15 µM"
- SMILES_STR: "CC(=O)N[C@]1(C)C(=O)Nc2cc(F)cc(C(=O)Nc3ccc4c(c3)CNC4)c21"
  IC50: "2.38 µM"
- SMILES_STR: "CCn1c(=O)c(N2C[C@H]3CCS(=O)(=O)[C@H]3C2)nc2ccccc21"
  IC50: "> 99.5 µM"
